Source of measurements: patent US20100190768A1

# TARGET ENTITY: human GRα protein (Homo sapiens, UniProt P04150)
# Construct: made in house; host or cells: insect cells infected with baculovirus; cytoplasm fraction used
# Sequence (P04150 1-777): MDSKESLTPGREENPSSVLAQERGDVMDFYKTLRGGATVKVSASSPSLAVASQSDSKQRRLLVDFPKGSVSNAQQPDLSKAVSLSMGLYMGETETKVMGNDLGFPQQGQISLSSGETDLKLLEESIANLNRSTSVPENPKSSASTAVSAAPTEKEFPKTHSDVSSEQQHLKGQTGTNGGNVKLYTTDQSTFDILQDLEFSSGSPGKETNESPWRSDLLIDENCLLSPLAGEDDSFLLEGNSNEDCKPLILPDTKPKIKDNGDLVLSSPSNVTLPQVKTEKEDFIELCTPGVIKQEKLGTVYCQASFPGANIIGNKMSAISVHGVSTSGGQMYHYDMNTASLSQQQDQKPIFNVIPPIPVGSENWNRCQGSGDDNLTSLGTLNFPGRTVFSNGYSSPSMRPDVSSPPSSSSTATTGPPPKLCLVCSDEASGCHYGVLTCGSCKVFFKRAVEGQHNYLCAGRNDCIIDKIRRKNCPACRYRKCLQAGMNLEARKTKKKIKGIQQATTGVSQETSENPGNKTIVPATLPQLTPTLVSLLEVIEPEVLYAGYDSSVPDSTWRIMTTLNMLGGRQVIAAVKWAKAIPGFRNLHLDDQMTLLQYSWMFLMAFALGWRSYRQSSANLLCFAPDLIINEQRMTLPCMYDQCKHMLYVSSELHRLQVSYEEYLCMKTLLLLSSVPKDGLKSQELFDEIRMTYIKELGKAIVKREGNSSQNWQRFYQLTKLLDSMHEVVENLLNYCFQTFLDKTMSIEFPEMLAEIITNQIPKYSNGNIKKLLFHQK
# PROTOCOL: Binding inhibitory assay (displacement of 3H-dexamethasone from the cytoplasm fraction of baculovirus-infected insect cells)
# MEASUREMENT CONTEXT: 100 nM test compound; 3H-Dex; NSB with 10 μM dexamethasone; read-out: Binding Inhibitory ratio (%) of 100 nM of test compound
QUANTITY KIND: inhibition at 0.1 µM
Reply with the number and its unit after it.

Field: example entries. Status: answers known.
{"COMPOUND": "CCOC(=O)CCc1ccc(OC2CCN(CC(O)(c3cn(Cc4ccccc4)c4cc([N+](=O)[O-])ccc34)C(F)(F)F)CC2)cc1 (stereo not shown)", "QUANTITY KIND": "inhibition at 0.1 µM", "REPORTED": "87%"}
{"COMPOUND": "O=[N+]([O-])c1ccc2c(C(O)(CNCCc3ccccc3)C(F)(F)F)cn(Cc3ccccc3)c2c1 (stereo not shown)", "QUANTITY KIND": "inhibition at 0.1 µM", "REPORTED": "50%"}
{"COMPOUND": "CCOC(=O)Cc1ccc(OC2CCN(CC(O)(c3cn(Cc4ccccc4)c4cc([N+](=O)[O-])ccc34)C(F)(F)F)CC2)cc1 (stereo not shown)", "QUANTITY KIND": "inhibition at 0.1 µM", "REPORTED": "81%"}

Kindly review the next compound as well.
Req: What value of measured inhibition at 0.1 µM is listed for O=[N+]([O-])c1ccc2c(C(O)(CN3CCC4(CC3)CS(=O)(=O)c3ccccc3O4)C(F)(F)F)cn(Cc3ccccc3)c2c1 (stereo not shown) ?
Resp: 72%
